MEASUREMENT PROTOCOL: self-splicing fitness, log relative to wild type (ln ratio); higher = more splicing; Tetrahymena group I intron in knt gene, E. coli kanamycin selection, DiMSum; sequences stand for … in CUCUCU…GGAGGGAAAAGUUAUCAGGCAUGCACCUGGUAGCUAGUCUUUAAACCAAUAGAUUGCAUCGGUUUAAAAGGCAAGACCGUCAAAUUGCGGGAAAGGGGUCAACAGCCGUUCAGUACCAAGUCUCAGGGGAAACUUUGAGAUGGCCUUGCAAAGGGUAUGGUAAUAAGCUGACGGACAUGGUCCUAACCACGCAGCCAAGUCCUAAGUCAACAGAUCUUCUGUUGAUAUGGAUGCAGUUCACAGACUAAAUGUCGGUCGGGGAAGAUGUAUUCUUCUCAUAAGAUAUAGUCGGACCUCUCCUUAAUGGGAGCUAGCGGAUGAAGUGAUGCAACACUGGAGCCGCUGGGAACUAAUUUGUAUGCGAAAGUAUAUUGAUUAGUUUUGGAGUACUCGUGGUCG;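 further: selection with 25 µg/mL kanamycin versus none on LB agar overnight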
CONDITION CONTEXT: 37 °C
Mark False for self-splicing fitness (ln) values under -2, and True for everything at or above.

In [3]: df
Out[3]:
                   chain  group
 0  GCCCAGCAAUAUUACGAAUU   True
 1  UGAAAGCAAUAUUACGUAAA   True
 2  AUGAAGCAAUAUUACGGCGU   True
 3  UGUAAGCAAUAUUACGCAUC   True
 4  CUUCAGCAAUAUUACGCUCG   True
 5  UUCCAGCAAUAUUACGCAGA   True
 6  UGAGAGCAAUAUUACGCCAG  False
 7  UACCAGCAAUAUUACGUAGA   True
 8  AUGAAGCAAUAUUACGGCUU  False
 9  CACUAGCAAUAUUACGGUAU   True
10  UUGAAGCAAUAUUACGGUUG   True
11  AUCGAGCAAUAUUACGGCUG   True
12  CUAGAGCAAUAUUACGGCAU  False
13  CUGAAGCAAUAUUACGGCCU  False
14  UGUGAGCAAUAUUACGUGGA  False
15  CUCCAGCAAUAUUACGUGUG   True
16  UAACAGCAAUAUUACGUCGC  False
17  ACUUAGCAAUAUUACGUACU   True
18  UGCUAGCAAUAUUACGUAUG   True
19  AGCAAGCAAUAUUACGGCAC   True
20  ACUCAGCAAUAUUACGACAC   True
21  GUUAAGCAAUAUUACGAUUA   True
22  CGAGAGCAAUAUUACGGCUG   True
23  CUGAAGCAAUAUUACGGCGU  False
24  AUGUAGCAAUAUUACGACCA   True
25  UCGGAGCAAUAUUACGGGGA   True
26  AGCAAGCAAUAUUACGCACG   True
27  CUCCAGCAAUAUUACGUAAA  False
28  UACGAGCAAUAUUACGCCGC  False
29  CCGAAGCAAUAUUACGUGUA  False
